Sourced from patent US20100092409A1

Entries annotated with measured pIC50
system.under.test: tumor necrosis factor α (TNFα) (UniProt P01375 77-233)
Sequence (P01375 77-233 limits assumed): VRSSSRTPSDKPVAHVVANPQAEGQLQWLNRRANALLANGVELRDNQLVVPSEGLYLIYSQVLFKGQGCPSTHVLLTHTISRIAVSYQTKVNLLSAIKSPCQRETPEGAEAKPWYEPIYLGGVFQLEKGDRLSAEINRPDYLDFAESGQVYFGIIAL
assay.overview: BioVeris ECL competition with a labeled competitor; grade + = apparent IC50 about 50-250 µM
pIC50: −log10 of the molar value.

binder	assay.result
BBIt-TNFα-T3-A13I-S25R-M27A-L29P-S31A-F50K-V52T (designed binder, also called BBIt-TNF-T3) DPDDESSKPCCDQCICTKSNPPQCRCRDARPNACHSACKSCACDMIMVSICKCTDITDFCYEPCKPSE	3.60 to 4.30

Read the next record carefully.
IN: Any idea what pIC50 was measured for BBIt-TNFα-T2-A13I-S25R-M27A-L29P-S31A-F50K-V52T (designed binder, also called BBIt-TNF-T2) DPDDESSKPCCDQCICTKSNPPQCRCRDARPNACHSACKSCACAPEPILACKCTDITDFCYEPCKPSE ?
OUT: 3.60 to 4.30
